target: UniProt P35372; assay: μ receptor affinity assay (3H-DAMGO); type: binding; settings: read-out: μ receptor Ki
Sequence (P35372 whole entry): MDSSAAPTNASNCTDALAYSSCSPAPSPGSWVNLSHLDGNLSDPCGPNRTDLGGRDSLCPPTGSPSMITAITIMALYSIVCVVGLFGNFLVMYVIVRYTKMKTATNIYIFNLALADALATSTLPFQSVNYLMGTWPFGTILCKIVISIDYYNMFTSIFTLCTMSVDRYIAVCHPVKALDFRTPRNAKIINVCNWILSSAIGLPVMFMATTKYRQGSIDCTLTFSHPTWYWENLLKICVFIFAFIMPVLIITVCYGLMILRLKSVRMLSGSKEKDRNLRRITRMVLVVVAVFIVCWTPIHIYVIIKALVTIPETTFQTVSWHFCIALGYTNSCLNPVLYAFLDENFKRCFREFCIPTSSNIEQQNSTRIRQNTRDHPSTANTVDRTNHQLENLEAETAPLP
pKi: −log10 of the molar value.
pKi: recorded values

**Query** Looking for the measured pKi of "CC(C)C[C@@H](NC(=O)[C@@H](Cc1ccccc1)NC(=O)N(CCN)Cc1cncnc1)C(=O)C[C@H](CCCCN)C(=O)N1CCC(N)(C(=O)O)CC1" , can you help?
**Result** < 6.00

New cases:
**Query** Looking for the measured pKi of CC(C)C[C@@H](NC(=O)[C@@H](Cc1ccccc1)NC(=O)N(C)C(CN)c1ccccc1)C(=O)C[C@H](CCCCN)C(=O)N1CCC(N)(C(=O)OC(C)C)CC1 (stereo partly drawn) , can you help?
**Result** < 6.00

**Query** Looking for the measured pKi of "CC(C)C[C@@H](NC(=O)[C@@H](Cc1ccccc1)NC(=O)N(CCN)Cc1cccnc1)C(=O)C[C@H](CCCCN)C(=O)N1CCC(N)(C(=O)O)CC1" , can you help?
**Result** < 6.00
